Experiment: Antagonist activity at angiotensin AT2 receptor in isolated cat adrenal medulla
Assay type: tissue-based, Felis catus
Non-standard residues stand in square brackets, D forms with d. Residues, ends and D or L forms follow the SMILES beside them. Sar = CNCC(=O)O
readout: pA2

- compound: "CC[C@H](C)[C@H](NC(=O)[C@H](Cc1ccc(O)cc1)NC(=O)[C@@H](NC(=O)[C@H](CCCNC(=N)N)NC(=O)CNC)C(C)C)C(=O)N[C@@H](Cc1cnc[nH]1)C(=O)N1CCC[C@H]1C(=O)N(C)[C@H](C(=O)O)[C@@H](C)CC"
  readout: "pA2"
  observed.value: 8
- compound: "CC[C@H](C)[C@H](NC(=O)[C@H](Cc1ccc(O)cc1)NC(=O)[C@@H](NC(=O)[C@H](CCCNC(=N)N)NC(=O)CNC)C(C)C)C(=O)N[C@@H](Cc1cnc[nH]1)C(=O)N1CCC[C@H]1C(=O)N[C@@H](CO)C(=O)O (H-[Sar]RVYIHPS-OH)"
  readout: "pA2"
  observed.value: 9.33
- compound: "CC[C@H](C)[C@H](NC(=O)[C@H](Cc1ccc(O)cc1)NC(=O)[C@@H](NC(=O)[C@H](CCCNC(=N)N)NC(=O)CNC)C(C)C)C(=O)N[C@@H](Cc1cnc[nH]1)C(=O)N1CCC[C@H]1C(=O)N[C@@H](CCSC)C(=O)O (H-[Sar]RVYIHPM-OH)"
  readout: "pA2"
  observed.value: 9.16
- compound: "CC[C@H](C)[C@@H](C(=O)N[C@@H](Cc1cnc[nH]1)C(=O)N1CCC[C@H]1C(=O)N(C)[C@H](C(=O)O)[C@@H](C)CC)N(C)C(=O)[C@H](Cc1ccc(O)cc1)NC(=O)[C@@H](NC(=O)[C@H](CCCNC(=N)N)NC(=O)CNC)C(C)C"
  readout: "pA2"
  observed.value: 8
